Values were extracted from PubChem BioAssay AID1986.

# PROCEDURE_DETAILS: inhibitors of HIV fusion peptide binding, primary screen, biochemical, uHTS, fluorescence dequenching (AID 1986)
# CONDITIONS_USED: cell-free peptide binding, 30 min, at 20 µM, hits give high values
About 890 (0.31%) of roughly 290,000 compounds were called active. Shown is part of a subset that was picked to be rich in actives.
METRIC_NAME: inhibition

1. O=C(O)c1ccccc1NS(=O)(=O)c1cccc(-n2sc3ccccc3c2=O)c1: 54.9% (active)
2. COc1cc(C=C(c2nc3ccccc3s2)c2nc3ccccc3s2)cc(OC)c1O: 26.6% (inactive)
3. CN(C)C(=O)c1ccc(-c2cc(C(F)(F)F)nn2C)s1: -1.2% (inactive)
4. Cn1nc(C(F)(F)F)cc1-c1ccc(S(N)(=O)=O)s1: 2.8% (inactive)
5. O=C(Nc1ccccc1)c1ccccc1NS(=O)(=O)c1ccc(Cl)s1: 28.5% (inactive)
6. COc1ccc(C(=O)N/N=C/c2sc3ccccc3c2O)cc1: 34.9% (inactive)
7. O=C(NCCCCc1ccccc1)C1CCCC1: -0.4% (inactive)
8. C=C1CN(CC(=O)OC)S(=O)(=O)c2ccccc21: 0.8% (inactive)
9. Clc1cccc(CNCCCSc2ncccn2)c1: -1.9% (inactive)
10. O=C(COC(=O)CCc1ccc(S(=O)(=O)N2CCOCC2)cc1)NC(=O)NC1CCCCC1: 0.6% (inactive)
11. CCOc1cc(NC(=S)NCCCN2CCOCC2)c(OCC)cc1NC(=O)c1cccs1: -2.2% (inactive)
12. COC(=O)c1ccc(OCC2c3cc(OC)c(OC)cc3CCN2C(=O)c2ccco2)cc1 (centres undefined): -1.1% (inactive)
13. Clc1ccc(-c2cnn3c(-c4ccncc4)ccnc23)cc1: -1.1% (inactive)
14. CC(C)CSC1=NSC2=NC(=O)/C(=C\c3ccccc3)C(=N)N12: 46.5% (inactive)
15. CC(/C=C1\SC(=S)N(NS(=O)(=O)c2ccc(C)cc2)C1=O)=C\c1ccccc1: 56.5% (active)
16. CCOC(=O)c1oc2ccccc2c1NC(=O)C1CCCCC1: 2.3% (inactive)
17. Cn1nc(C(F)(F)F)cc1-c1ccc(/C=C(\C#N)C(=O)c2cccc(C(F)(F)F)c2)s1: 55.2% (active)
18. O=C(N/N=C/c1sc2ccccc2c1O)c1ccccc1: 95% (active)
19. CN(C)S(=O)(=O)c1cccc(-n2sc3ccccc3c2=O)c1: -1.2% (inactive)
20. N=C1/C(=C\c2coc3ccccc3c2=O)C(=O)N=C2SC(c3ccncc3)=NN12: 146% (inactive)
21. CSC1=NSC2=NC(=O)/C(=C/c3coc4ccccc4c3=O)C(=N)N12: 91.2% (active)
22. O=C(CN1CCN(c2ccccc2F)CC1)c1c[nH]c2ccc(F)cc12: 4% (inactive)
23. CC1=CC2=NC(=O)/C(=C\c3cc(C)n(-c4cccc(Cl)c4)c3C)C(=N)N2O1: 0.2% (inactive)
24. CCSC1=NSC2=NC(=O)/C(=C\c3coc4ccccc4c3=O)C(=N)N12: 89.7% (active)
25. O=C(Nc1sc2c(c1C(=O)O)CCCC2)C(=O)N1CCOCC1: 2.6% (inactive)
26. O=C(O)c1cccc(NC(=S)N/N=C/c2cccc(O)c2)c1: 1.3% (inactive)
27. C/C=C\C=C/C(=O)Nc1cccc(C2=NOC3(C2)C[C@H](C(N)=O)N(C(=O)c2ccc(OC)cc2)C3)c1 (some centres undefined): 5.2% (inactive)
28. CCOC(=O)c1c(-c2ccc(C)cc2)csc1NC(=O)/C(C#N)=C/c1ccc(O)c(OC)c1: 95% (inactive)
29. CCOc1ccc(NC(=O)CSc2nc3ccsc3c(=O)n2CCC(=O)O)cc1: 2.5% (inactive)
